B1: ZNF263 (parent)
chain: FAHSSNLLRHQRIHTGERPYKCPE

variants of: B1; assay: protein stability index of a GFP-peptide fusion (GPS, HEK-293T) (PSI 1-6); higher = more stable; conditions: c terminus: a fixed tail appended;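 also: lentivirally expressed fusions sorted by FACS into six bins by GFP to DsRed ratio, PSI derived from sequencing read proportions per bin multiplied by bin number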
protein stability index listing for selected variants.
Please reply with the value in numeric form only.

Sample answers from the record:
[[record]]
residue_string = "FAHSDNLLRHQRIHTGERPYKCPE [S5D]"
attribute_measured = "protein stability index"
recorded_result = 2.87

[[record]]
residue_string = "FAHSSNLLRHQKIHTGERPYKCPE [R12K]"
attribute_measured = "protein stability index"
recorded_result = 2.56

[[record]]
residue_string = "FAHSPNLLRHQRIHTGERPYKCPE [S5P]"
attribute_measured = "protein stability index"
recorded_result = 2.25

[[record]]
residue_string = "FAHSSNLLRHQRKHTGERPYKCPE [I13K]"
attribute_measured = "protein stability index"
recorded_result = 2.68

[[record]]
residue_string = "FAHSSNLLRHQRMHTGERPYKCPE [I13M]"
attribute_measured = "protein stability index"
recorded_result = 2.12

[[record]]
residue_string = "FAHSSNLLRHQRIHTGERPYKCPN [E24N]"
attribute_measured = "protein stability index"
recorded_result = 1.88

[[record]]
residue_string = "FAHSSWLLRHQRIHTGERPYKCPE [N6W]"
attribute_measured = "protein stability index"
recorded_result = 3.04

[[record]]
residue_string = "FAHSSNLLLHQRIHTGERPYKCPE [R9L]"
attribute_measured = "protein stability index"
recorded_result = 2.88


Form field: reported protein stability index of FAHSSNLLRHQRIGTGERPYKCPE [H14G] 2.59

For the variant shown here, FAHSSNLLRHQRIHCGERPYKCPE [T15C] , give the reported protein stability index. 1.95
